Notes on IC50 obtained with UniProt:P09616.

>  <MOLECULE>
O=c1[nH]c2cc(F)c(S(=O)(=O)Nc3ccc(-c4ccccc4F)c(Cl)c3)cc2[nH]c1=O [Compound 36]

>  <TESTED_ON>
UniProt:P09616

>  <IC50>
< 30 nM

$$$$
>  <MOLECULE>
O=c1[nH]c2cc(Cl)c(S(=O)(=O)Nc3ccc4ccccc4c3)cc2[nH]c1=O [Compound 172]

>  <TESTED_ON>
UniProt:P09616

>  <IC50>
100 to 1000 nM

$$$$
>  <MOLECULE>
O=c1[nH]c2cc(Cl)c(S(=O)(=O)Nc3ccc(-c4cccnc4)c(Cl)c3)cc2[nH]c1=O [Compound 48]

>  <TESTED_ON>
UniProt:P09616

>  <IC50>
30 to 100 nM

$$$$

Next molecule, IC50 to be filled in.
Retrieve IC50 on UniProt:P09616; query Cc1cc2[nH]c(=O)c(=O)[nH]c2cc1S(=O)(=O)Nc1ccc(-c2ccccc2CO)c(Cl)c1 [Compound 78]
100 to 1000 nM

---

In this section we review reported EC50 values for a set of compounds.
Target: S. aureus Alpha hemolysin (Staphylococcus aureus, UniProt P09616)
Sequence (P09616 27-319 limits assumed): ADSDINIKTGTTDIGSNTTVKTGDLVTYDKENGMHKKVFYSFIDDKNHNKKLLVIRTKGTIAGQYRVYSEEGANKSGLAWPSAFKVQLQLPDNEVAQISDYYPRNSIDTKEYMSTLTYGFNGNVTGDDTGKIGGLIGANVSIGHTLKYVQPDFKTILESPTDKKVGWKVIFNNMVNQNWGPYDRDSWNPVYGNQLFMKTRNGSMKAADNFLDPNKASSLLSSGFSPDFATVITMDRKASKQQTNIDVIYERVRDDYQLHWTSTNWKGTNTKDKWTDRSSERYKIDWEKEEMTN
Assay: cell-based
Conditions: A549-LDH Assay activity

Reference set, count: 6
>  <CHEMICAL_SMILES>
Cc1cc2[nH]c(=O)c(=O)[nH]c2cc1S(=O)(=O)Nc1ccc(-c2ccc3cccnc3c2)c(C(F)(F)F)c1

>  <EC50>
100 to 1000 nM

$$$$
>  <CHEMICAL_SMILES>
Cc1cc2[nH]c(=O)c(=O)[nH]c2cc1S(=O)(=O)Nc1ccc(-c2cccc(CO)c2)c(Cl)c1

>  <EC50>
100 to 1000 nM

$$$$
>  <CHEMICAL_SMILES>
Cc1cc2[nH]c(=O)c(=O)[nH]c2cc1S(=O)(=O)Nc1ccc(C2=CCCCC2)c(Cl)c1

>  <EC50>
30 to 100 nM

$$$$
>  <CHEMICAL_SMILES>
Cc1cc2[nH]c(=O)c(=O)[nH]c2cc1S(=O)(=O)Nc1ccc(-c2cccc(O)c2)c(Cl)c1

>  <EC50>
< 30 nM

$$$$
>  <CHEMICAL_SMILES>
COc1cc2[nH]c(=O)c(=O)[nH]c2cc1S(=O)(=O)Nc1ccc(SC(F)(F)F)cc1

>  <EC50>
100 to 1000 nM

$$$$
>  <CHEMICAL_SMILES>
CC(=O)c1cccc(-c2ccc(NS(=O)(=O)c3cc4[nH]c(=O)c(=O)[nH]c4cc3C)cc2Cl)c1

>  <EC50>
100 to 1000 nM

$$$$

Answer with reported EC50 of COc1ccccc1-c1ccc(NS(=O)(=O)c2cc3[nH]c(=O)c(=O)[nH]c3cc2C)cc1
100 to 1000 nM

Report EC50, nothing else, for this compound: CCOc1cc2[nH]c(=O)c(=O)[nH]c2cc1S(=O)(=O)Nc1ccc(OC(F)(F)F)cc1
< 30 nM

---

Reported EC50 by item:
Biological target: S. aureus Alpha hemolysin (Staphylococcus aureus, UniProt P09616)
Assay: cell-based
Details: A549-LDH Assay activity

Some entries whose results are on file:
>  <COMPOUND>
Cc1cc2[nH]c(=O)c(=O)[nH]c2cc1S(=O)(=O)Nc1ccc(-c2csc(C#N)c2)c(Cl)c1 [Compound 290]

>  <ENDPOINT_RESULT>
30 to 100 nM

$$$$
>  <COMPOUND>
[2H]C([2H])([2H])Oc1ccc(-c2ccc(NS(=O)(=O)c3cc4[nH]c(=O)c(=O)[nH]c4cc3C)cc2Cl)cc1 [Compound 267]

>  <ENDPOINT_RESULT>
30 to 100 nM

$$$$
>  <COMPOUND>
CN(C)c1cccc(-c2ccc(NS(=O)(=O)c3cc4[nH]c(=O)c(=O)[nH]c4cc3F)cc2Cl)c1 [Compound 34]

>  <ENDPOINT_RESULT>
100 to 1000 nM

$$$$
>  <COMPOUND>
Cc1cc2[nH]c(=O)c(=O)[nH]c2cc1S(=O)(=O)Nc1ccc(-c2ccc3c(c2)NC(=O)CO3)c(Cl)c1 [Compound 355]

>  <ENDPOINT_RESULT>
< 30 nM

$$$$
>  <COMPOUND>
Cc1cc2[nH]c(=O)c(=O)[nH]c2cc1S(=O)(=O)Nc1ccc(OC(F)F)cc1 [Compound 394]

>  <ENDPOINT_RESULT>
30 to 100 nM

$$$$

Name the value of EC50 reported for O=c1[nH]c2cc(Cl)c(S(=O)(=O)Nc3ccc(-c4ccccc4)cc3)cc2[nH]c1=O [Compound 98] when tested on S. aureus Alpha hemolysin (Staphylococcus aureus, UniProt P09616).
100 to 1000 nM

Report EC50 from S. aureus Alpha hemolysin (Staphylococcus aureus, UniProt P09616) testing of C#Cc1ccc(NS(=O)(=O)c2cc3[nH]c(=O)c(=O)[nH]c3cc2C)cc1 [Compound 130]
100 to 1000 nM
